Target: Clec10a-Fc (Mus musculus, UniProt P49300)
Construct: cloning the extracellular region of mouse Clec10a into a pME18S expression vector; made in house; host or cells: HEK293T cells
Sequence (P49300 57-304 limits assumed): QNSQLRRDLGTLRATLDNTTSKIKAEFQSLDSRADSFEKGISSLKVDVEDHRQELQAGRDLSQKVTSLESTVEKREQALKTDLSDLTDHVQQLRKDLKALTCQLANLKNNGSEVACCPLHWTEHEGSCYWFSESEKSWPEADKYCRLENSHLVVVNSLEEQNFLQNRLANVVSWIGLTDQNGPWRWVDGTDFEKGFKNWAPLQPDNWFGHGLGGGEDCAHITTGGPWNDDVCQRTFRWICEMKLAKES
Test: Sugar conjugate (glycan) microarray analysis of Clec10a-Fc (Table 7); further: unit not given here
Format: binding
Details: glycan microarray probed with Clec10a-Fc
measured-quantity: Signal value, Clec10a-Fc

[
  {
    "compound": "CC(=O)N[C@@H]1[C@@H](O)[C@H](O[C@@H]2O[C@H](CO)[C@H](O)[C@H](O[C@]3(C(=O)O)C[C@H](O)[C@@H](NC(C)=O)[C@H]([C@H](O)[C@H](O)CO)O3)[C@H]2O)[C@@H](CO)O[C@H]1O [[3′S]LN]",
    "target-or-system": "Clec10a-Fc (Mus musculus, UniProt P49300)",
    "observed-measurement": 0
  },
  {
    "compound": "O=P(O)(O)OC[C@H]1O[C@H](O)[C@@H](O)[C@@H](O)[C@@H]1O [[6P]Man]",
    "target-or-system": "Clec10a-Fc (Mus musculus, UniProt P49300)",
    "observed-measurement": 0
  },
  {
    "compound": "CC(=O)N[C@@H]1[C@@H](O)[C@H](O[C@@H]2O[C@H](CO)[C@H](O)[C@H](O)[C@H]2O[C@@H]2O[C@@H](C)[C@@H](O)[C@@H](O)[C@@H]2O)[C@@H](CO)O[C@H]1O [H type2]",
    "target-or-system": "Clec10a-Fc (Mus musculus, UniProt P49300)",
    "observed-measurement": 0
  }
]
